Attribution: PubChem BioAssay (EPA / NIEHS)

Molecular target: Oxysterols receptor LXR-beta (Homo sapiens) (UniProt P55055)
Sequence (P55055 whole entry, looked up): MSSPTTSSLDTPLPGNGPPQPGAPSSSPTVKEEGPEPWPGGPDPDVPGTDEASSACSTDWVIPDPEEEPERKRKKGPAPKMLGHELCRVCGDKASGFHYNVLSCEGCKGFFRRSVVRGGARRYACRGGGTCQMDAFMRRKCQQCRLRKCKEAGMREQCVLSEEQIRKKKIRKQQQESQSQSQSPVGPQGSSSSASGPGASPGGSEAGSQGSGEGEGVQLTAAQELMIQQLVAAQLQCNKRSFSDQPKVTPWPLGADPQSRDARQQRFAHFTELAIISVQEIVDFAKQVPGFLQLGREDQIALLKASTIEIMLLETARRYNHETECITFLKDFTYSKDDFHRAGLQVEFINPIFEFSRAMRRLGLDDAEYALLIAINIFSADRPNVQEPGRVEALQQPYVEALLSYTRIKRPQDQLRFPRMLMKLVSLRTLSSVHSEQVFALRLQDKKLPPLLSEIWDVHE
Assay: ATG_LXRb_TRANS: Attagene TRANS-FACTORIAL HepG2 Assay for human Liver X Receptor beta (LXRb) (AID 2282981)
Conditions: HepG2 Attagene TRANS GAL4-LXRb reporter, mRNA
Inconclusive results are not listed. Activity calls are given as the source filed them. Rule for the calls: active = hit-call score of the fitted dose curve at least 0.9, where 1 is the maximum; inconclusive = response in the unintended direction; inactive = score below 0.9.
In this exercise, the only acceptable responses are active, inactive

Here's what some known entries look like.
* Cc1ncc([N+](=O)[O-])n1C | inactive
* [Ca+2] | inactive
* CCCCCCCCCCN | inactive
* c1ccc2[nH]ccc2c1 | inactive
* CC1(C)[C@H](C(=O)OCc2cccc(Oc3ccccc3)c2)[C@@H]1C=C(Cl)Cl | inactive

Per the records of this test, what outcome belongs to Cc1cccc(C)c1[N+](=O)[O-] ?
inactive

Per the records of this test, what outcome belongs to CC(C)=CCCC(C)=CCCC(C)=CCO ?
inactive

Per the records of this test, what outcome belongs to C[C@]12CC[C@H]3[C@@H](CCC4=CC(=O)CC[C@@]43C)[C@@H]1CC[C@@H]2C(=O)CO ?
inactive

====

Test system: Sodium/Iodide Symporter (NIS), SLC5A5 (gene 6528)
Assay: CPHEA_Stoker_NIS_Inhibition_RAIU: CPHEA's Radioactive Iodide Uptake (RAIU) Assay for Sodium/Iodide Symporter (NIS) Inhibition, Stoker and Laws Labs (AID 2283841)
Results filed as inconclusive are left out. Activity calls are given as the source filed them. The calls were made as follows: active = hit-call score of the fitted dose curve at least 0.9, where 1 is the maximum; inconclusive = response in the unintended direction; inactive = score below 0.9.
In this exercise, the only acceptable responses are active, inactive

• Cc1ccc(O)c(C(C)(C)C)c1 = inactive
• BrC1CCC(Br)C(Br)CCC(Br)C(Br)CCC1Br (stereo not drawn) = inactive
• c1ccc2[nH]ccc2c1 = inactive
• CSc1nc(NC2CC2)nc(NC(C)(C)C)n1 = active
• COc1cc(C(C)(C)C)c(O)c(C(C)(C)C)c1 = inactive
• CCCCCCCCC = inactive
• CC(C)C[C@H]1C(=O)N2CCC[C@H]2[C@]2(O)O[C@](NC(=O)[C@@H]3C=C4c5cccc6[nH]c(Br)c(c56)C[C@H]4N(C)C3)(C(C)C)C(=O)N12 = inactive
• CCN(CC)CCOC(=O)c1ccc(N)cc1 = inactive

Per the records of this test, what outcome belongs to Cc1ccc(S)cc1 ?
inactive

Per the records of this test, what outcome belongs to O=C1c2ccccc2C(=O)N1SC1CCCCC1 ?
inactive

Per the records of this test, what outcome belongs to CC(C)=CCCC(C)=CCCC(C)=CCO ?
inactive

Per the records of this test, what outcome belongs to CCCCCCCCCCCCCOS(=O)(=O)O ?
inactive

Per the records of this test, what outcome belongs to CCN(CC)c1ccc2c(-c3ccccc3C(=O)O)c3ccc(=[N+](CC)CC)cc-3oc2c1 ?
inactive

====

Assay: ATG_E_Box_CIS: Attagene CIS-FACTORIAL HepG2 Assay for human Enhancer Box (E-box) (AID 2282936)
Settings: HepG2 E-box cis-reporter transcription, actives raise or lower the signal
Activity calls are given as the source filed them. Rule for the calls: active = hit-call score of the fitted dose curve at least 0.9, where 1 is the maximum; inactive = score below 0.9.
In this exercise, the only acceptable responses are label 1 = active, label 0 = inactive

Here's what some known entries look like.
- O=C1CCc2ccccc2O1: label 0
- CC(C)(C)c1cc(CCC(=O)NN)cc(C(C)(C)C)c1O: label 0
- CC(C)(C#N)c1cc(Cn2cncn2)cc(C(C)(C)C#N)c1: label 0
- CC(C)=CCC[C@H](C)CC=O: label 0
- CCCCNC(=O)NS(=O)(=O)c1ccc(C)cc1: label 0

Per the records of this test, what outcome belongs to OCCOc1cccc(OCCO)c1 ?
label 0

Per the records of this test, what outcome belongs to CO[Si](C)(OC)c1ccccc1 ?
label 0

Per the records of this test, what outcome belongs to OCCN1CCNCC1 ?
label 0

Per the records of this test, what outcome belongs to CCCCCCCCCCCCCCCC(=O)OC[C@H](O)[C@H]1OC(=O)C(O)=C1O ?
label 0
